B1: TPR t1 (parent)
chain: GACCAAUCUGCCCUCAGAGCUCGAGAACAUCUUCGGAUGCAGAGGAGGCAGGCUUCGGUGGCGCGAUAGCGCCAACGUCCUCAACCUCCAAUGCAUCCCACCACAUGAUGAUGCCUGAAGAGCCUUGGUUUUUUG

variants of: B1; test: polymerase ribozyme fitness, log enrichment relative to wild type (log ratio); higher = more active; in vitro selection for triplet polymerase activity
Assign y whenever polymerase ribozyme fitness (log ratio) does not fall below -1; assign n whenever it does.

Reference set (2 entries):
q: Answer whether polymerase ribozyme fitness (log ratio) of GACCAAUCUGCCCUCAGAGCUCGAGAACGUCUUCGGAUGCAGCGGAGGCAGGCUUCGGUGGCGCGAUAGCGCCAACGUCCUCAACCUCCAAUGCAUCCCACCACAUGAUGAUGCCUGAAGAGCCUUGGUUUUUUG [A29G A43C] is greater than or equal to -1.
a: n

q: Answer whether polymerase ribozyme fitness (log ratio) of GACCAAUCUGCCCUCAGAGUUCGAGAACAUCUUCGGAUGCAGAGGAGGCAGGCUUCGGUGGCGCGAUAGCGCCAACGUCCUCAACCUCCAAUGCAUCCCACCACAUGAUGAUGCCUGAAGAGCCUUGGAUUUUUG [C20U U129A] is greater than or equal to -1.
a: n

Next:
q: Answer whether polymerase ribozyme fitness (log ratio) of GACUAAUCUGCCCUCAGAGCUCGAGAACAUCUUCGGAUGCAGAGGAGGCAGGCUUCGGUGGCUCGAUAGCGCCAACGUCCUCAACCUCCAAUGCAUCCCACCACAUGAUGAUGCCUGAAGAGCGUUGGUUUUUUG [C4U G63U C124G] is greater than or equal to -1.
a: y

q: Answer whether polymerase ribozyme fitness (log ratio) of GACCAAUUUGCCCGCAGAGCUCGAGAACAUCUUCGGAUGCAGAGGAGGCAGGCUUCGGUAGCGCGAUAGCGCUAACGUCCUCAACCUCCAAUGCAUCCCACCACAUGAUGAUGCCUGAAGAGCCUUGGUUUUUUG [C8U U14G G60A C73U] is greater than or equal to -1.
a: y

q: Answer whether polymerase ribozyme fitness (log ratio) of GACCAAUCUGCCCUCAGAGCUGGAGAACAUCUUCGGAUGCAGAGGAGGCAGGCUUCGGUGGCGCGAUAGCGCCAACGUCUUCAACCUCCAAUGCAUCCCACCACAUGAUGAUGCCUGAAGAGCCUUGGUUUUUUG [C22G C80U] is greater than or equal to -1.
a: n

q: Answer whether polymerase ribozyme fitness (log ratio) of GACCAAUCUGCCCUCAGAGCUCGAGAACAUCUUCGGAUGCAGAGAAGGCAGGCUUCGGUGGCGCGAUAGCGCCAACGUCCUCAACCUCCAAUGCCUCCCACCACAUGAUGUUGCCUGAAGAGCCUUGGUUUUUUG [G45A A95C A111U] is greater than or equal to -1.
a: n

q: Answer whether polymerase ribozyme fitness (log ratio) of GACCAAUCUGCCCUCAGAGCUCGAGAACAUCUUCGGAUGCAGAGGAGGCAGGCUUCGGUGGCGCGAUAGCGCCAACGUCCUCAACCUCCAAUGUAUCCCAACACAUGAUGAUGCCUGAAGAGCCUUGGUUUUUUG [C94U C101A] is greater than or equal to -1.
a: n

q: Answer whether polymerase ribozyme fitness (log ratio) of GACCAAUCUGCCCUCAGAGCUCGAGAACAUCUUCGGAUGCAGAGGAGGCUGGCUUCGGUGGCGCGAUAGCGGCAACGUCCUCAACCUCCAAUGCAUCCCACCACAUGAUGAUGCCUGAAGAGCCUUGGUUUUUUG [A50U C72G] is greater than or equal to -1.
a: n

q: Answer whether polymerase ribozyme fitness (log ratio) of GAUCAAUCUGCCCUCAGAGCUCGAGAACAUCUUCGGAUGCAGAGGAGGCAGGCUUCGGCGGCGCGAUAGCGCCAACGUCCUCAACCUCCAAUGCAUCCCACCACAUGAUGGUGCCUGAAUAGCCUUGGUUUUUUG [C3U U59C A111G G120U] is greater than or equal to -1.
a: n

q: Answer whether polymerase ribozyme fitness (log ratio) of GACUAAUCUGCCCUCAGAGCUCGAGAACAUCUUCGGAUGCAGAGGAGGCAGGCUUCGGUGGCGCGAUAGCGCCAACGUCCUCAACCUCCAAUGCAUCCCACCACAUGAUGAUGCCUGAAGAGCCUUGGUUUUUUU [C4U G135U] is greater than or equal to -1.
a: n

q: Answer whether polymerase ribozyme fitness (log ratio) of GACCAAUCUGGCCUCAGAGCUCGAGAACAUCUUCGGAUGCAGAGGAGUCAGGCUUCGGUGGCGCGAUAGCGACAACGUCCUCAACCUCCAAUGCAUCCCACCACAUGAUGAUGCCUGAAGAGCCUUGGUUUUUUG [C11G G48U C72A] is greater than or equal to -1.
a: y
